Attribution: PubChem BioAssay (NCI)

Tested on: HOP-92 NSCLC
TEST_SUMMARY: NCI-60 one-dose screen, 48 h (100 = growth as untreated, 0 = no growth, -100 = all killed)
CONDITION_SET: 10 µM unless noted
About 83,000 compounds went through this panel and 20% of them were active in at least one assay; those are over-represented in the sample as a whole.
PARAMETER_MEASURED: growth (%)

>>> measured_value("CCN1C(=O)N(CC)C2C1NN=c1s/c(=C\\c3cccs3)c(=O)n12 (stereo not given)")
64.1
>>> measured_value("COc1ccc(NC(=O)CSc2nnc(-c3cc(-c4ccc(S(N)(=O)=O)cc4)nc4ccccc34)n2-c2ccccc2)cc1")
62.2
>>> measured_value("O=C(CCCCCCSc1nc(-c2ccccc2)cc(-c2ccc(Cl)cc2)n1)NO")
-7.58
>>> measured_value("NC(=S)Nc1cccc(O)c1")
98.9
>>> measured_value("CN(C)c1ccc(-c2cc(-c3ccc(Nc4nc(Nc5ccc(Cl)cc5)nc(Nc5ccc(Cl)cc5)n4)cc3)no2)cc1")
-11.5
>>> measured_value("O=C1Nc2ccc(F)cc2C12Nc1cc(Cl)ccc1S2 (stereo not given)")
-5.66
>>> measured_value("O=S(=O)(NCCCNc1cc(-c2c(-c3cccc(O)c3)nc3sccn23)ccn1)c1cccc(Cl)c1")
111
>>> measured_value("CNc1ccc(NC)c2c1C(=O)c1ccccc1C2=O")
78.3
>>> measured_value("O=c1[nH]ccc2nc(N3CCC(O)CC3)nc(Nc3ccc(N4CCOCC4)cc3)c12")
2.14
>>> measured_value("Clc1ccc(-c2c3ccc(=[N+]4CCCCC4)cc-3oc3cc(N4CCCCC4)ccc23)cc1")
-70.1
>>> measured_value("c1csc(-c2c3ccc(=[N+]4CCCCC4)cc-3oc3cc(N4CCCCC4)ccc23)c1")
-64.7
>>> measured_value("COc1ccc(N=C(c2ccccc2)C2C(=O)c3ccccc3C2=O)cc1")
-11.2
>>> measured_value("CC/C=C/C/C=C/C/C=C/C/C=C/C/C=C/C/C=C/CCC(=O)Nc1ccn([C@@H]2O[C@H](CO)[C@@H](O)C2(F)F)c(=O)n1")
32.1
>>> measured_value("CCCc1cc2c(=O)c(C(=O)OC)c[nH]c2cc1N(CC)CC")
111
>>> measured_value("CN(C)CCC=C1c2ccccc2C(C)(C)c2ccccc21")
36.7
>>> measured_value("C=CCOC1=CC(=O)c2ccccc2C1=O")
114
>>> measured_value("COc1ccc(C2=NN(C(=O)c3cc(OC)c(OC)c(OC)c3)C(c3ccc(Cl)cc3)C2)cc1OC (stereo not given)")
31.6
>>> measured_value("CCN(CC)c1ccc(C(=O)c2ccc(N(CC)CC)cc2)cc1")
51.2
>>> measured_value("COc1ccc(OC)c(-c2c(C#N)c(-c3ccc(Cl)cc3)nc3c2c(-c2ccccc2)nn3-c2ccccc2)c1")
101
>>> measured_value("CCN1C(=O)N(CC)C2Nn3c(s/c(=C4\\C(=O)N(C)c5ccccc54)c3=O)=NC21 (stereo not given)")
75.5
